Overview of reported remaining at 24 h, 50 MBq across a group of compounds:
test: Chemical stability of the compound in phosphate buffered saline assessed as compound remaining at 50 MBq measured after 24 hrs by radio-HPLC method; format: physicochemical; details: read-out: Stability
Answer with a number only, understood to be in %.

# entry smiles, measured result
rows = [
    ("O=c1cc(-c2ccc(O)c(O)c2)oc2c(O)c(O)c([123I])cc12", 48),
]

Now turn to the next compound.
input: Consider the compound `O=c1cc(-c2cc(O)c(O)c([123I])c2)oc2c(O)c(O)ccc12` . State its measured remaining at 24 h, 50 MBq.
output: 53
